Test system: Escherichia coli TOP10;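 further: peptides expressed intracellularly from a pBAD plasmid library in pooled LB shake-flask culture, induced with 0.3% L-arabinose, DNA abundance read by NGS, three biological replicates, DESeq2 with apeglm shrinkage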
Assay: shrunken log2 fold change of peptide-encoding DNA abundance (4.5 h post-induction vs induction); higher = less antimicrobial activity (less host growth inhibition)
Conditions: time post-induction: 4.5 h; library: site-saturation at positions 5, 18, 19, 20
Listed here: items and their measured shrunken log2 fold change.
metric: shrunken log2 fold change

- input_sequence: "RRIRMRPPRLPRPRPRPECMPRP"
  metric: "shrunken log2 fold change"
  result_number: 2.53
- input_sequence: "RRIRSRPPRLPRPRPRPGQIPRP"
  metric: "shrunken log2 fold change"
  result_number: -0.227
- input_sequence: "RRIRGRPPRLPRPRPRPGCPPRP"
  metric: "shrunken log2 fold change"
  result_number: 0.806
- input_sequence: "RRIRFRPPRLPRPRPRPESYPRP"
  metric: "shrunken log2 fold change"
  result_number: -0.0666
- input_sequence: "RRIRRRPPRLPRPRPRPASAPRP"
  metric: "shrunken log2 fold change"
  result_number: 0.227
- input_sequence: "RRIRLRPPRLPRPRPRPKFRPRP"
  metric: "shrunken log2 fold change"
  result_number: -0.0412
- input_sequence: "RRIRRRPPRLPRPRPRPQSQPRP"
  metric: "shrunken log2 fold change"
  result_number: 0.112
- input_sequence: "RRIRHRPPRLPRPRPRPHIPPRP"
  metric: "shrunken log2 fold change"
  result_number: -0.514
- input_sequence: "RRIRCRPPRLPRPRPRPFKYPRP"
  metric: "shrunken log2 fold change"
  result_number: -0.246
- input_sequence: "RRIRWRPPRLPRPRPRPAKCPRP"
  metric: "shrunken log2 fold change"
  result_number: -0.0704
- input_sequence: "RRIRLRPPRLPRPRPRPQWDPRP"
  metric: "shrunken log2 fold change"
  result_number: -0.00172
- input_sequence: "RRIRPRPPRLPRPRPRPPWRPRP"
  metric: "shrunken log2 fold change"
  result_number: 0.558
- input_sequence: "RRIRDRPPRLPRPRPRPEILPRP"
  metric: "shrunken log2 fold change"
  result_number: -0.101
- input_sequence: "RRIRGRPPRLPRPRPRPNGYPRP"
  metric: "shrunken log2 fold change"
  result_number: -0.00669
- input_sequence: "RRIRCRPPRLPRPRPRPSLEPRP"
  metric: "shrunken log2 fold change"
  result_number: -0.136
- input_sequence: "RRIRDRPPRLPRPRPRPLFAPRP"
  metric: "shrunken log2 fold change"
  result_number: 0.65
- input_sequence: "RRIRSRPPRLPRPRPRPFYSPRP"
  metric: "shrunken log2 fold change"
  result_number: -0.131
- input_sequence: "RRIRGRPPRLPRPRPRPDIDPRP"
  metric: "shrunken log2 fold change"
  result_number: 2.17
- input_sequence: "RRIRPRPPRLPRPRPRPRHGPRP"
  metric: "shrunken log2 fold change"
  result_number: 0.0491
- input_sequence: "RRIRLRPPRLPRPRPRPNAHPRP"
  metric: "shrunken log2 fold change"
  result_number: -0.154
- input_sequence: "RRIRIRPPRLPRPRPRPRQVPRP"
  metric: "shrunken log2 fold change"
  result_number: 0.0368
- input_sequence: "RRIRKRPPRLPRPRPRPKQFPRP"
  metric: "shrunken log2 fold change"
  result_number: -0.123
- input_sequence: "RRIRARPPRLPRPRPRPASRPRP"
  metric: "shrunken log2 fold change"
  result_number: 0.44
- input_sequence: "RRIRKRPPRLPRPRPRPEFAPRP"
  metric: "shrunken log2 fold change"
  result_number: 1.03
- input_sequence: "RRIRFRPPRLPRPRPRPGSCPRP"
  metric: "shrunken log2 fold change"
  result_number: -0.0149
- input_sequence: "RRIRARPPRLPRPRPRPTTWPRP"
  metric: "shrunken log2 fold change"
  result_number: 0.423
- input_sequence: "RRIRLRPPRLPRPRPRPTNTPRP"
  metric: "shrunken log2 fold change"
  result_number: -0.375
- input_sequence: "RRIRRRPPRLPRPRPRPNERPRP"
  metric: "shrunken log2 fold change"
  result_number: -0.0664
- input_sequence: "RRIRPRPPRLPRPRPRPAFAPRP"
  metric: "shrunken log2 fold change"
  result_number: 0.374
- input_sequence: "RRIRIRPPRLPRPRPRPEDIPRP"
  metric: "shrunken log2 fold change"
  result_number: -0.407
- input_sequence: "RRIRHRPPRLPRPRPRPDKGPRP"
  metric: "shrunken log2 fold change"
  result_number: 0.0349
- input_sequence: "RRIRERPPRLPRPRPRPTGNPRP"
  metric: "shrunken log2 fold change"
  result_number: -0.267
